Value source: patent US20110178053A1

Biological target: Pim-2 (Homo sapiens)
Construct: His6-labelled recombinant full-length human Pim-1, Pim-2 or Pim-3 protein; His6; made in house
Sequence (Q9P1W9 whole entry): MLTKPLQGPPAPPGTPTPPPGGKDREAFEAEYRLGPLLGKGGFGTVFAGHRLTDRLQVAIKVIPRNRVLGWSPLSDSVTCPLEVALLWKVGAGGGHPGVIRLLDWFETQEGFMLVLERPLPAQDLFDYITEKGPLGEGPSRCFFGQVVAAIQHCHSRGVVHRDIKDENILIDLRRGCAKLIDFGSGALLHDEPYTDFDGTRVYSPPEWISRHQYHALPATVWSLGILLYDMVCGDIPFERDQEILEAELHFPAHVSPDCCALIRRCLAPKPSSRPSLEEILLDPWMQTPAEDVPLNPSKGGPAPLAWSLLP
Test: TR-FRET assay, Pim-2 kinase (phosphorylation of Bad Ser112)
Assay type: biochemical
Details: TR-FRET; ATP 40 μM; read-out: IC50 Pim2
assay_readout: IC50

{"compound": "CCN(CC)CCOc1cccc(-c2cnc3[nH]c4cnc(-c5cccnc5)cc4c3c2)c1 [Example 153]", "result": "1 to 5 µM"}
{"compound": "CCN(CC)CCOc1ccc(-c2c(F)cnc3[nH]c4cnc(-c5cccnc5)cc4c23)cc1 [Example 100]", "result": "0.1 to 1 µM"}

Please fill in: IC50 reported for CS(=O)(=O)N1CCN(CCCOc2ccc(-c3cnc4[nH]c5cnc(-c6cccnc6)cc5c4c3)cc2)CC1 [Example 152] = 0.1 to 1 µM

Please fill in: IC50 reported for c1cncc(-c2cc3c(cn2)[nH]c2ncc(N4CCOCC4)cc23)c1 [Example 14] = 1 to 5 µM

Please fill in: IC50 reported for COc1cc(OC)cc(-c2c(F)cnc3[nH]c4cnc(-c5cccnc5)cc4c23)c1 [Example 23] = > 5 µM
